measurement.notes: Neurotoxicity in ip dosed albino CD-1 mouse assessed as motor impairment by rotarod test
Type: toxicity, organism-based
condition.context: in vivo
readout.type: TD50 (mg/kg)
Numbers only, in mg/kg.

Solved entries:
> print(dat)
                                   molecule  scale.unit  test.result
1  O=C1NC(=O)C(c2ccccc2)(c2ccccc2)N1 [PHENYTOIN]       mg/kg         59.9
2  CC1(c2ccccc2)CC(=O)N(CC(=O)N2CCN(c3ccc(F)cc3)CC2)C1=O (centres undefined)       mg/kg          248
3  CC1(c2ccccc2)CC(=O)N(CC(=O)N2CCN(c3ccccc3F)CC2)C1=O (centres undefined)       mg/kg          302
4  COc1ccccc1N1CCN(C(=O)CN2C(=O)CC(C)(c3ccccc3)C2=O)CC1 (centres undefined)       mg/kg          240

Moving on to another molecule below.
Value of TD50 reported for the molecule CC1(c2ccccc2)CC(=O)N(CC(=O)N2CCN(Cc3ccccc3)CC2)C1=O (centres undefined) is 205

====

System: Mus musculus
measurement.notes: Neurotoxicity in albino CD-1 mouse assessed as motor impairment at 30 to 300 mg/kg mg/kg, ip measured after 2 hrs by rotarod test
Type: toxicity, organism-based
condition.context: in vivo
readout.type: MTC

Observe how each entry below is paired with its result.
> print(dat)
                                   compound  test.result
1  CC1(c2ccccc2)CC(=O)N(CC(=O)N2CCN(c3ncccn3)CC2)C1=O (stereo unspecified)    Non-toxic
2  Cc1ccccc1N1CCN(C(=O)CN2C(=O)CC(C)(c3ccccc3)C2=O)CC1 (stereo unspecified)    Non-toxic
3  CC1(c2ccccc2)CC(=O)N(CC(=O)N2CCN(c3ccc(F)cc3)CC2)C1=O (stereo unspecified)    300 mg/kg
4  Cc1cccc(N2CCN(C(=O)CN3C(=O)CC(C)(c4ccccc4)C3=O)CC2)c1 (stereo unspecified)    300 mg/kg
5  COc1ccccc1N1CCN(C(=O)CN2C(=O)CC(C)(c3ccccc3)C2=O)CC1 (stereo unspecified)    300 mg/kg

API: the following record is the query input.
The reported value for O=C1NC(=O)C(c2ccccc2)(c2ccccc2)N1 [PHENYTOIN] in terms of MTC is 100 mg/kg

====

Test system: Mus musculus
measurement.notes: Neurotoxicity in albino CD-1 mouse assessed as motor impairment at 30 to 300 mg/kg mg/kg, ip measured after 0.5 hrs by rotarod test
Format: toxicity, organism-based
condition.context: in vivo
readout.type: MTC

// solved cases for MTC follow
> print(dat)
                                   compound  readout.type  test.result
1  CC1(c2ccccc2)CC(=O)N(CC(=O)N2CCOCC2)C1=O (stereo not given)           MTC    Non-toxic
2  COc1ccccc1N1CCN(C(=O)CN2C(=O)CC(C)(c3ccccc3)C2=O)CC1 (stereo not given)           MTC    300 mg/kg
3  CC1(c2ccccc2)CC(=O)N(CC(=O)N2CCC(Cc3ccccc3)CC2)C1=O (stereo not given)           MTC    Non-toxic
4  CC1(c2ccccc2)CC(=O)N(CC(=O)N2CCN(c3cccc(Cl)c3)CC2)C1=O (stereo not given)           MTC    Non-toxic

Now turn to the next compound.
The compound identified as CC1(c2ccccc2)CC(=O)N(CC(=O)N2CCN(c3ccc(Cl)c(Cl)c3)CC2)C1=O (stereo not given) registered its MTC at Non-toxic
